System: RAW-Dual (murine macrophage reporter line)
Assay: NF-kB reporter (SEAP) activity fold change vs agonist alone; higher = enhanced NF-kB activity
Conditions: modulator concentration 10 µM; agonist: LPS 0.1 ug/mL

{"columns": ["COMPOUND", "NF-kB reporter"],
 "data": [
  ["C#CCOc1ccc(C=C2C(=O)NC(=O)N(c3cc(OC)c(Cl)cc3OC)C2=O)cc1Cl", 1],
  ["Cc1ccc(C)c2sc(N3CCN(C)CC3)nc12.Cl", 1.02],
  ["CCN(CC)CCNC(=O)C(O)(c1ccccc1)c1ccccc1", 0.937],
  ["COc1ccc2c3c([nH]c2c1)C(C)=NCC3", 0.917],
  ["CCCCCn1c(=O)c(C(=O)NCc2cccnc2)c(O)c2ccccc21", 1.25],
  ["Cc1noc(C)c1CC(=O)N1CCCSCC1CN1CCCC1 (configuration not stated)", 1.03],
  ["Fc1ccc(CNCCc2c[nH]c3ccccc23)cc1", 1.08],
  ["Br.NCCc1cc(O)c(O)cc1O", 0.911],
  ["CCOC(=O)c1ccccc1-c1ccc(C=C2C(=O)NC(=O)N(c3cccc(C)c3)C2=O)o1", 0.965],
  ["CN1CC(CNC(=O)OCc2ccccc2)CC2c3cccc4c3c(cn4C)CC21 (configuration not stated)", 0.966],
  ["COc1ccc(N2C(=O)C(=Cc3ccc(OCc4ccc(F)cc4)c(OC)c3)C(=O)NC2=S)cc1", 1.04],
  ["CCOc1cc(C=C2N=C(c3cccc(C)c3)OC2=O)ccc1OC(=O)Cc1ccccc1", 0.959],
  ["CN(C)CCC(=O)c1ccccc1", 0.28],
  ["COc1ccc(CCNCc2ccc3ccccc3c2)cc1", 0.755],
  ["CC(=O)OC1CN2CCC1CC2.Cl (configuration not stated)", 0.984],
  ["CC(C)(C)NCC(O)c1cc(Cl)c(N)c(Cl)c1 (configuration not stated) [Prestw-345]", 0.945],
  ["CCC1CN2CCC1CC2C(O)c1ccnc2ccc(OC)cc12 (configuration not stated)", 1.16]
]}

###

The following molecules are listed with their measured NF-kB reporter values.
Test system: RAW-Dual (murine macrophage reporter line)
Assay: NF-kB reporter (SEAP) activity fold change vs agonist alone; higher = enhanced NF-kB activity
Conditions: modulator concentration 10 µM; agonist: CpG ODN 1826 0.5 ug/mL

{"columns": ["MOLECULE", "NF-kB reporter"],
 "data": [
  ["CN1C(=O)C(=Cc2nc3ccccc3c(=O)n2-c2ccccc2)c2ccccc21", 1.01],
  ["O=C1NC(=O)C(=Cc2cc(Br)ccc2OCc2ccc(Cl)cc2Cl)C(=O)N1", 0.887],
  ["COc1ccccc1N1C(=O)C(=Cc2ccc(C)s2)C(=O)NC1=S", 1.07],
  ["COc1cc([C@@H]2c3cc4c(cc3[C@H](O)[C@H]3COC(=O)[C@H]23)OCO4)cc(OC)c1OC [Prestw-782]", 2.45]
]}

###

Test system: RAW-Dual (murine macrophage reporter line)
Experiment: NF-kB reporter (SEAP) activity fold change vs agonist alone; higher = enhanced NF-kB activity
Conditions: modulator concentration 10 µM; agonist: MPLA […]
Threshold check on NF-kB reporter: at or above 1 gives True, strictly below gives False.

{"columns": ["MOLECULE", "ASSIGNED CLASS"],
 "data": [
  ["CN1C(=O)COc2c(C(=O)NC3CN4CCC3CC4)cc(Cl)cc21.Cl (stereo not given)", "True"],
  ["CC[C@@]1(O)C(=O)OCc2c1cc1n(c2=O)Cc2cc3ccccc3nc2-1", "True"],
  ["COC(=O)c1ccc(N2C(=O)NC(=O)C(=Cc3ccc(OCc4ccccc4F)cc3)C2=O)cc1", "False"],
  ["C#CCOc1ccc(C=C2C(=O)NC(=O)N(c3cc(OC)c(Cl)cc3OC)C2=O)cc1Cl", "False"]
]}
